System: MDA-MB-231 breast
assay_overview: NCI tumour cell line growth inhibition, 48 h
Kindly state TGI for each of the entries shown.
Give just the numeric value; µM need not be written.

Query the reported TGI for MDA-MB-231 breast; item: `CCC(=O)c1c(C(F)(F)F)n([O-])c2ccc(C)cc2[n+]1=O`
37.9

Query the reported TGI for MDA-MB-231 breast; item: NC(CCC(=O)O)C(=O)N1CCN(c2nc(N3CCCC3)c3nc(Cl)c(NCc4ccccc4)nc3n2)CC1 (configuration not stated)
31.2

Query the reported TGI for MDA-MB-231 breast; item: `Cc1ccc(/C=C2\CCC/C(=C\c3ccc(O)c(CN4CCCCC4)c3)C2=O)cc1`
22.3

Query the reported TGI for MDA-MB-231 breast; item: `COc1cc(OC)cc(-c2nc3cc(F)ccc3s2)c1`
40.3

Query the reported TGI for MDA-MB-231 breast; item: `Cc1nc(-c2ccccc2)c(-c2ccccc2)s1`
69.6

Query the reported TGI for MDA-MB-231 breast; item: Cc1ccc2c(c1)C1(C)OC(C=CC1=O)O2 (configuration not stated)
0.745

Query the reported TGI for MDA-MB-231 breast; item: CCN(CC)CCCC(C)Nc1cnc(C(=O)Nc2cccc3ccc(OC)nc23)cn1 (configuration not stated)
3.45

Query the reported TGI for MDA-MB-231 breast; item: CON(C)C(=O)N1N=C(c2cc(F)ccc2F)SC1(CCCN)c1ccccc1 (configuration not stated)
0.039

Query the reported TGI for MDA-MB-231 breast; item: `Cc1cc(O)c(C(C)(C)C)cc1Sc1cc(C(C)(C)C)c(O)cc1C`
5.06

Query the reported TGI for MDA-MB-231 breast; item: C=C(CC[C@@H](C)[C@H]1CC[C@@]2(C)C3=C(CC[C@]12C)[C@@]1(C)CC[C@H](O)[C@@H](C)C1CC3)C(C)C (some centres not stated)
2.74

Query the reported TGI for MDA-MB-231 breast; item: CN1C2CCC1CC(CCNC(c1ccccc1)c1ccccc1)C2 (configuration not stated)
72.4

----------
Tested on: RPMI-8226 leukemia
assay_overview: NCI tumour cell line growth inhibition, 48 h
Outcome label depends on TGI relative to 60 µM: at/above gives rule met, below gives rule not met.

Confirm if TGI reported for the compound `CSc1nc2cc(S(=O)(=O)N3CCCCC3)ccc2s1` is 60 µM or above.
rule met

Confirm if TGI reported for the compound C=C(C)C(=O)OC1CCC2(C)C(CCC3C2CCC2(C)C(c4ccc(=O)oc4)CC4OC432)C1 (stereo not given) is 60 µM or above.
rule not met

Confirm if TGI reported for the compound CCCCCN(CCCCC)CC(O)c1ccc(Cl)c2ccccc12 (stereo not given) is 60 µM or above.
rule not met

Confirm if TGI reported for the compound NC(CCC(=O)O)C(=O)N1CCN(c2nc(N3CCCC3)c3nc(Cl)c(NCc4ccccc4)nc3n2)CC1 (stereo not given) is 60 µM or above.
rule not met

Confirm if TGI reported for the compound COC(=O)CCc1cc(O)c2c(c1)C(C(=O)OC)C(c1ccc(O)c(O)c1)O2 (stereo not given) is 60 µM or above.
rule met

Confirm if TGI reported for the compound `COc1cc(/C=C2\N=C(c3ccccc3)N(c3nc4c(OC)ccc(OC)c4s3)C2=O)ccc1O` is 60 µM or above.
rule met

Confirm if TGI reported for the compound C=CC1(C)CCC2=C(CCC3C(C)(C(=O)OC)CCCC23C)C1=O (stereo not given) is 60 µM or above.
rule not met

Confirm if TGI reported for the compound Cc1ccc(NC(=O)c2sc3nc(C)c(C(O)c4ccccc4)cc3c2N)cc1 (stereo not given) is 60 µM or above.
rule not met

Confirm if TGI reported for the compound `Clc1ccccc1/C=C/c1cscn1` is 60 µM or above.
rule met

Confirm if TGI reported for the compound `Cc1ccc(NC(=O)NCCCOc2ccc(N3C(N)=NC(N)=NC3(C)C)cc2Cl)cc1S(=O)(=O)F` is 60 µM or above.
rule met

----------
Tested on: HL-60(TB) leukemia
assay_overview: NCI tumour cell line growth inhibition, 48 h; in the data active = GI50 below about 0.43 µM; inactive = the rest
Select the correct class. Options are active, inactive and nothing else.

Which outcome did this test record for the molecule `COc1ccc(OC)c(C(=O)c2oc3ccc(Br)cc3c2N)c1` ?
active

Which outcome did this test record for the molecule `Cc1ccc(C(=O)Nc2ccc(CN3CCN(C)CC3)c(C(F)(F)F)c2)cc1C#Cc1cnc(N)c2ccccc12` ?
inactive

Which outcome did this test record for the molecule `COc1ccc(-n2cc(-c3cc(OC)c(OC)c(OC)c3)[nH]c2=O)cc1Cl` ?
inactive

Which outcome did this test record for the molecule `N#Cc1cccc(NC(=O)c2cc(-c3ccc(F)cc3F)ccc2O)c1` ?
inactive

Which outcome did this test record for the molecule `COc1cc2c3c(n(CCNCCCNCCn4c5c(c6cc(OC)c(OC)cc6c4=O)C(=O)c4ccccc4-5)c(=O)c2cc1OC)-c1ccccc1C3=O` ?
active

Which outcome did this test record for the molecule `O=C1/C(=C/c2ccc(O)cc2)CSc2ccc(Cl)cc21` ?
inactive

Which outcome did this test record for the molecule `COC(=O)c1c(C)[nH]c(/C=C2\N=C(c3ccc[nH]3)C=C2OC)c1C` ?
active

Which outcome did this test record for the molecule `CCc1oc2ccccc2c1C(=O)c1cc(I)c(O)c(I)c1` ?
inactive

Which outcome did this test record for the molecule `CCOC(=O)c1c(C)nc2c(c1N)/C(=C/c1ccc(OC)cc1)C(=O)N2Cc1ccc(F)cc1` ?
active

Which outcome did this test record for the molecule `c1cc[c]([Pb]([c]2ccccc2)[c]2ccccc2)cc1` ?
inactive

Which outcome did this test record for the molecule `Fc1ccc(-c2nn3ncccc3c2-c2ccnc(Nc3ccc4c(c3)OCCO4)n2)cc1` ?
inactive

----------
System: MDA-N
assay_overview: NCI tumour cell line growth inhibition, 48 h
recorded_endpoint: TGI

# TGI lookup, item `CC(=O)OCCOCn1cnc2c(Cl)nc(Cl)nc21`
32.9 µM

# TGI lookup, item `CCOP(=O)(CN1CCNCCNCC1)OCC`
> 100 µM

# TGI lookup, item `CC(C)(C)C1=CC(=C(c2ccc(-c3c4nc(c(-c5ccc(C(=C6C=C(C(C)(C)C)C(=O)C(C(C)(C)C)=C6)c6cc(C(C)(C)C)c(O)c(C(C)(C)C)c6)cc5)c5ccc([nH]5)c(-c5ccc(C(=C6C=C(C(C)(C)C)C(=O)C(C(C)(C)C)=C6)c6cc(C(C)(C)C)c(O)c(C(C)(C)C)c6)cc5)c5nc(c(-c6ccc(C(=C7C=C(C(C)(C)C)C(=O)C(C(C)(C)C)=C7)c7cc(C(C)(C)C)c(O)c(C(C)(C)C)c7)cc6)c6ccc3[nH]6)C=C5)C=C4)cc2)c2cc(C(C)(C)C)c(O)c(C(C)(C)C)c2)C=C(C(C)(C)C)C1=O`
> 100 µM

# TGI lookup, item `COc1ccc(CCN2CCN(CCc3ccc(OC)cc3)CC2)cc1`
> 100 µM

# TGI lookup, item `O=c1c2cc(S(=O)(=O)O)ccc2nc(COc2ccc(Oc3ccc(Cl)cc3Cl)cc2)n1-c1ccc(Cl)cc1Oc1c(Cl)cccc1Cl`
99.4 µM

# TGI lookup, item Cc1cc(C)n(C2OC(CO)C(O)C(O)C2O)c(=S)c1C#N (configuration not stated)
> 100 µM

# TGI lookup, item Cn1cnc([N+](=O)[O-])c1[Se]c1nc(N)nc2c1ncn2C1OC(CO)C(O)C1O (configuration not stated)
> 100 µM

# TGI lookup, item COc1ccc(C2C3=C(Nc4ncnn42)c2ccccc2OC3c2ccccc2)cc1 (configuration not stated)
44.1 µM

# TGI lookup, item `CCn1c(SCC(=O)NNC(=S)Nc2ccc(C)cc2)nc2ccccc2c1=O`
> 100 µM

# TGI lookup, item Nc1ncn(C2CC(O)C(CO)O2)c(=O)n1 (configuration not stated)
7.2 µM

# TGI lookup, item `O=C(O)[C@@H]1CSCN1C(=O)[C@@H]1CCC(=S)N1`
> 100 µM

# TGI lookup, item `CNc1nc(N)c(N=O)c(Nc2ccc(Br)cc2)n1`
> 100 µM

# TGI lookup, item `CCOC(=O)CN=C1NNS(=O)(=O)c2ccccc21`
> 100 µM

# TGI lookup, item COc1cc(/C=C2\CN(C)CC3=C2NC(=S)NC3c2cc(OC)c(OC)c(OC)c2)cc(OC)c1OC (configuration not stated)
> 100 µM

# TGI lookup, item Cc1ccc(N=Nc2c(C)c(C#N)c(=S)n(C3OC(CO)C(O)C(O)C3O)c2C)cc1 (configuration not stated)
> 100 µM

# TGI lookup, item CCc1c(C)c(C#N)c(=S)n(C2OC(COC(C)=O)C(OC(C)=O)C(OC(C)=O)C2OC(C)=O)c1C (configuration not stated)
> 100 µM

# TGI lookup, item `COC1(OC)CC(CO)(CNc2nc(N)nc(Cl)c2/C=N\O)C1`
> 100 µM

----------
Tested on: 786-0 renal
assay_overview: NCI tumour cell line growth inhibition, 48 h
Kindly state TGI for each of the entries shown.

# TGI lookup, item `Cc1ccc(NC(=O)NCCCOc2ccc(N3C(N)=NC(N)=NC3(C)C)cc2Cl)cc1S(=O)(=O)F`
> 100 µM

# TGI lookup, item N#CCC(=O)NC1C2CC3CC(C2)CC1C3 (stereo unspecified)
35.8 µM

# TGI lookup, item `N#C/C(=C\c1cc2ccccc2c2ccccc12)c1ccccc1`
18 µM

# TGI lookup, item `Cn1c2ccccc2c2c3[nH]c(=O)[nH]c(=O)c3c3c4ccccc4n(C)c3c21`
4.34 µM

# TGI lookup, item `O=C1N[C@@H](c2c[nH]c3cc(Br)ccc23)C(=O)N[C@H]1c1c[nH]c2cc(Br)ccc12`
> 100 µM

# TGI lookup, item `N#Cc1cccc(NC(=O)c2cc(-c3ccc(F)cc3F)ccc2O)c1`
19.4 µM

# TGI lookup, item `CC(=O)N[C@@H](Cc1ccc(O)cn1)C(=O)NCc1cccc(Cl)c1`
> 100 µM

# TGI lookup, item COC1=CC2(C=CC1=O)c1cc(OC)c(OC)cc1CCN2C(=O)c1ccccc1 (stereo unspecified)
> 100 µM

# TGI lookup, item `O=C1NCCCNCCCNCCCNC(=O)c2cccc1n2`
> 100 µM

# TGI lookup, item `CCO/N=C(/N)c1ncn(Cc2ccccc2)c1NCC(OCC)OCC`
> 100 µM

# TGI lookup, item `COc1cccc(/C=C2\C(=O)N(C(=O)c3ccc(NC(C)=O)cc3)N=C2C)c1`
> 100 µM

# TGI lookup, item `CNc1nc2n(CCO)c(-c3ccccc3)c(-c3ccccc3)nc-2c(=O)n1`
> 50 µM

# TGI lookup, item C/C=C1/C(=C/c2[nH]c(/C=c3\[nH]/c(=C/C4=NC(=O)C(CC)=C4C)c(C)c3CCC(=O)O)c(CCC(=O)O)c2C)NC(=O)C1C (stereo unspecified)
> 150 µg/mL

# TGI lookup, item `COC(=O)C(=Cc1cc(OC)c(OC)c(OC)c1-c1cc2c(cc1C(C)=O)OCO2)C(=O)OC`
61.6 µM

# TGI lookup, item `OC/C=C(\I)CCCOCOCc1ccccc1`
> 100 µM

# TGI lookup, item Cc1ccc(S(=O)(=O)OC(c2ccc(Cl)cc2Cl)C2OC(=O)c3ccccc32)cc1 (stereo unspecified)
> 100 µM

# TGI lookup, item CC(C)(C)[Si](C)(C)OCC1OC(n2cc(I)c(N)nc2=O)C(O[Si](C)(C)C(C)(C)C)C1O[Si](C)(C)C(C)(C)C (stereo unspecified)
9.09 µM

# TGI lookup, item `CCCCN1CSC(=S)N(Cc2ccccc2)C1`
> 100 µM

# TGI lookup, item `CCc1oc2ccccc2c1C(=O)c1cc(I)c(O)c(I)c1`
15.3 µM

# TGI lookup, item NC(CCC(=O)O)C(=O)N1CCN(c2nc(N3CCCC3)c3nc(Cl)c(NCc4ccccc4)nc3n2)CC1 (stereo unspecified)
25.9 µM

# TGI lookup, item Fc1ccc(C2SCc3nc4ccccc4n32)cc1Cl (stereo unspecified)
> 100 µM
